Values compiled from patent US8664226B2.

# TESTED TARGET: angiotensin II type 1 receptor (Oryctolagus cuniculus, UniProt P34976)
# Construct: By using a specimen of isolated rabbit blood vessels
# ASSAY PROTOCOL: Angiotensin II antagonistic activity in isolated rabbit blood vessels
# SETTINGS: angiotensin II (10 nM)-induced contraction of rabbit thoracic aorta ring
pIC50: −log10 of the molar value.
MEASURED ENDPOINT: pIC50

Worked examples, 2 compounds total:
COMPOUND SMILES	EXPERIMENTAL VALUE
CCCCc1nc(C)n(-c2ncc(OCC(=O)OCC)cn2)c(=O)c1Cc1ccc(-c2ccccc2-c2nnn[nH]2)cc1	7.60
CCCCc1nc(C)n(-c2ncn(C)n2)c(=O)c1Cc1ccc(-c2ccccc2-c2nnn[nH]2)cc1	7.64

1: CCCCc1nc(C)n(-c2cnccn2)c(=O)c1Cc1ccc(-c2ccccc2-c2nnn[nH]2)cc1
2: CCCCc1nc(C)n(-c2ncc(OCCCO)cn2)c(=O)c1Cc1ccc(-c2ccccc2-c2nnn[nH]2)cc1
3: CCCCc1nc(C)n(-c2ncccc2F)c(=O)c1Cc1ccc(-c2ccccc2-c2nnn[nH]2)cc1
Q) Hey, quick one: sort these by pIC50, largest value first please. Enter labels, ranked according to the request.
A) 1, 2, 3

---

# TESTED TARGET: angiotensin II type 1 receptor (Oryctolagus cuniculus, UniProt P34976)
# Construct: By using a specimen of isolated rabbit blood vessels
# ASSAY PROTOCOL: Angiotensin II antagonistic activity in isolated rabbit blood vessels
# SETTINGS: angiotensin II (10 nM)-induced contraction of rabbit thoracic aorta ring
pIC50: −log10 of the molar value.
MEASURED ENDPOINT: pIC50

COMPOUND	TESTED TARGET	pIC50
CCCCc1nc(C)n(-c2ncc(OCCCCC(N)=O)cn2)c(=O)c1Cc1ccc(-c2ccccc2-c2nnn[nH]2)cc1	angiotensin II type 1 receptor (Oryctolagus cuniculus, UniProt P34976)	8.07

A: CCCCc1nc(C)n(-c2ncc(OC(C(=O)O)c3ccccc3)cn2)c(=O)c1Cc1ccc(-c2ccccc2-c2nnn[nH]2)cc1 (stereo not drawn)
B: CCCCc1nc(C)n(-c2ncc(OCc3nc(-c4ccco4)oc3C)cn2)c(=O)c1Cc1ccc(-c2ccccc2-c2nnn[nH]2)cc1
Q) Dear colleague, could you let me know whether A or B has the lower recorded pIC50? Thanks. // return label of chosen record
A) B

---

# TESTED TARGET: angiotensin II type 1 receptor (Oryctolagus cuniculus, UniProt P34976)
# Construct: By using a specimen of isolated rabbit blood vessels
# Sequence (P34976 1-359): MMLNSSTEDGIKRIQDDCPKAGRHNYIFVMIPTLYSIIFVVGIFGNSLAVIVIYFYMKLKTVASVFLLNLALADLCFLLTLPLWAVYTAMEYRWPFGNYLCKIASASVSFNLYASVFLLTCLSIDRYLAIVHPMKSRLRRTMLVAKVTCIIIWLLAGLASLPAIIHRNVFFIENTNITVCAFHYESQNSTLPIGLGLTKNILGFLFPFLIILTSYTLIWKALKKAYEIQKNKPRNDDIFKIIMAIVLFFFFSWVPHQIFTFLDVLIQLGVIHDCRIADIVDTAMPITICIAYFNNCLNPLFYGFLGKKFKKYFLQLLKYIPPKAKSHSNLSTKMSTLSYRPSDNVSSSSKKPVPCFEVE
# ASSAY PROTOCOL: Angiotensin II antagonistic activity in isolated rabbit blood vessels
# SETTINGS: angiotensin II (10 nM)-induced contraction of rabbit thoracic aorta ring
MEASURED ENDPOINT: IC50 (nM)

P: CCCCc1nc(C)n(-c2ncc(OCCCC(=O)NC(C)C)cn2)c(=O)c1Cc1ccc(-c2ccccc2-c2nnn[nH]2)cc1
Q: CCCCc1nc(C)n(-c2ncc(OC(C(N)=O)c3ccccc3)cn2)c(=O)c1Cc1ccc(-c2ccccc2-c2nnn[nH]2)cc1 (stereo not shown)
R: CCCCc1nc(C)n(-c2ncc(OC3CCCCC3)cn2)c(=O)c1Cc1ccc(-c2ccccc2-c2nnn[nH]2)cc1
S: CCCCc1nc(C)n(-c2ncc(OCCCC(N)=O)cn2)c(=O)c1Cc1ccc(-c2ccccc2-c2nnn[nH]2)cc1
T: CCCCc1nc(C)n(-c2ccc(C)cn2)c(=O)c1Cc1ccc(-c2ccccc2-c2nnn[nH]2)cc1
Q) I'd appreciate it if you sorted the entries above by their IC50, lowest to highest. Enter labels, ranked according to the request.
A) S, P, R, T, Q
(S: 2.6 nM, P: 5.8 nM, R: 49 nM, T: 84 nM, Q: 963 nM)

a: CCCCc1nc(C)n(-c2ncccn2)c(=O)c1Cc1ccc(-c2ccccc2-c2nnn[nH]2)cc1
b: CCCCc1nc(C)n(-c2ncc(OCc3ccccc3)cn2)c(=O)c1Cc1ccc(-c2ccccc2-c2nnn[nH]2)cc1
Q) Dear colleague, could you let me know whether a or b has the lower recorded IC50? Thanks. // return label of chosen record
A) a
(a: 9.2 nM, b: 396 nM)
